tested on: IGROV1 ovarian; assay: NCI tumour cell line growth inhibition, 48 h
Where a SMILES comes first, the peptide text is derived from it. [ ]: non-standard residue; d: D form. The star is where a group is joined. X28 = COC1=CC(=O)N(C(=O)[C@@H](O*)C(C)C)[C@H]1Cc1ccccc1; NMeV = CN[C@H](C(=O)O)C(C)C; Hexanoyl = CCCCCC(=O)*
property: TGI

Examples with answers:
molecule=CCCNC1=C(C(=O)OCC)C(=O)CO1 value_observed="> 100 µM"
molecule="CCCCCC(=O)N[C@H](C(=O)N[C@H](C(=O)N(C)[C@H](C(=O)N1CCC[C@H]1C(=O)N1CCC[C@H]1C(=O)O[C@H](C(=O)N1C(=O)C=C(OC)[C@@H]1Cc1ccccc1)C(C)C)C(C)C)C(C)C)C(C)C (Hexanoyl-VV[NMeV]PP-X28)" value_observed="> 100 µM"
molecule="CCOC(=O)COc1ccccc1/C=C1\\CCC(CN(C)C)C1=O (centres undefined)" value_observed="30.4 µM"

Now turn to the next molecule.
// Cc1cc(N(CCCl)CCCl)ccc1C=Nc1ccc(-c2csc(Cc3ccccc3)n2)cc1 : TGI value = > 100 µM

###

test system: UACC-62 melanoma; test: NCI tumour cell line growth inhibition, 48 h
property: TGI

Here's what some known entries look like.
compound=COC(=O)[C@H](C[C@H](Cc1ccccc1)NC(=O)c1csc([C@@H](C[C@H](C(C)C)N(C)C(=O)[C@@H](NC(=O)[C@H]2CCCCN2C)C(C)C)OC(C)=O)n1)NC(=O)OCc1ccccc1 property=TGI value_observed="> 9 µM"
compound=CN(C)CCNc1c2c(c(NCCN(C)C)c3[nH]ccc13)C(=O)c1ccccc1C2=O property=TGI value_observed="14.8 µM"
compound=C1C[OH+]CC[OH+]CCNCC[OH+]CC[OH+]CCN1.N.[Cl-].[Pt+4] property=TGI value_observed="14.9 µM"
compound="CC1SC2=NC3=C(c4ccccc4C3=O)C(c3ccc(F)cc3)N2C1=O (centres undefined)" property=TGI value_observed="> 100 µM"

Summary for this compound, O=C(N/C(=C\c1ccc2c(c1)OCO2)c1nc2ccccc2[nH]1)c1ccccc1 : TGI is 56.9 µM

get_value(item= C=CCOc1ccc(/C(N=Nc2ccc(Cl)cc2)=N/NC(=O)c2ccccc2)cc1OC , readout=TGI) returns > 100 µM

Note to self: TGI recorded for O=C(CSc1nnc(-c2ccc(N=Cc3ccc(Cl)cc3)cc2)o1)Nc1ccc(Cl)cc1Cl was 60.3 µM

The value of TGI measured for the compound C/C(=N/NC(=S)Nc1ccc([N+](=O)[O-])cc1)c1cccc(/C(C)=N\NC(=S)Nc2ccc([N+](=O)[O-])cc2)n1 turned out to be 2.87 µM

Item: O=c1cc(-c2ccccc2)[nH]c2ccccc12 | TGI: > 100 µM

###

Reported TGI values follow for various compounds
system: MDA-MB-231 breast; assay: NCI tumour cell line growth inhibition, 48 h
Where a SMILES comes first, the peptide text is derived from it. [ ]: non-standard residue; d: D form. The star is where a group is joined. X28 = COC1=CC(=O)N(C(=O)[C@@H](O*)C(C)C)[C@H]1Cc1ccccc1; NMeV = CN[C@H](C(=O)O)C(C)C; Hexanoyl = CCCCCC(=O)*

Examples with their reported TGI follow.
compound=NC(=O)N/N=C1\CCCCc2ccccc21 value_observed="> 10 µM"
compound=O=C(NCCO)Nc1ccc(-c2nc(N3CCOCC3)c3cccn3n2)cc1 value_observed="14.6 µM"
compound="CCOC(=O)C1=[N+]([O-])OC2=C(O)CCCC21 (stereo unspecified)" value_observed="> 100 µM"
compound=O=[N+]([O-])c1ccc(-c2nnc(C34CC5CC(CC(C5)C3)C4)o2)cc1 value_observed="> 100 µM"
compound=CCOC(=O)N(Cc1cccs1)c1cc(OC)c(OC)c(OC)c1 value_observed="> 100 µM"
compound="Nc1nc2c(c3ncncc13)C(c1cccc(C(F)(F)F)c1)Cc1ncncc1-2 (stereo unspecified)" value_observed="31.3 µM"
compound="CCSCCC(N)C(=O)O (stereo unspecified)" value_observed="> 100 µM"
compound=COc1ccc(-c2nn3c(-c4cc(F)c(Cl)cc4Cl)nnc3s2)cc1 value_observed="> 100 µM"

GET /value?item= CNC(=O)OC(C)CN1c2ccccc2Sc2ccc(Cl)cc21 (stereo unspecified) &field=TGI returns > 10 µM

Sure, the documented TGI for CCCCCC(=O)N[C@H](C(=O)N[C@H](C(=O)N(C)[C@H](C(=O)N1CCC[C@H]1C(=O)N1CCC[C@H]1C(=O)O[C@H](C(=O)N1C(=O)C=C(OC)[C@@H]1Cc1ccccc1)C(C)C)C(C)C)C(C)C)C(C)C (Hexanoyl-VV[NMeV]PP-X28) is > 100 µM

// field: TGI; key: CC(=O)N1C(Nc2ccccn2)CCN1c1ccccc1 (stereo unspecified) ; value = > 10 µM

Looking up CS(=O)(=O)N1CC(CCl)c2ccc([N+](=O)[O-])cc21 (stereo unspecified) , I found its TGI recorded as > 100 µM

The compound listed as COc1ccc2oc(=N)c(C(=O)NCc3ccccc3)cc2c1 shows TGI equal to 58.1 µM

The recorded TGI for entry CC(=O)OCOC(=O)CN(CC(=O)OCOC(C)=O)Cc1cc2c(cc1OC(C)=O)Oc1cc(OC(C)=O)c(CN(CC(=O)OCOC(C)=O)CC(=O)OCOC(C)=O)cc1C21OC(=O)c2ccccc21 equals 3.64 µM

Reported TGI for C=CCOc1cccc(/C=C2\SC(=Nc3ccc(O)cc3)NC2=O)c1 was 6.62 µM

# TGI of O=C(/C=C/c1ccccc1)CCN1CCN(CCC(=O)/C=C/c2ccccc2)CC1 = 17 µM

compound Cc1nc2cccc(F)c2c(=O)n1C1CCCCNC1=O (stereo unspecified) , TGI observed: > 10 µM

GET /value?item= CC(CCC(=O)O)[C@H]1CCC2[C@@H]3CC[C@@H]4CC(O)CC[C@]4(C)C3CC[C@@]21C (stereo partly specified) &field=TGI returns > 100 µM

// recorded TGI for CC[C@@H](C(=O)O)C1CC[C@H](C)C([C@@H](C)[C@H](O)[C@H](C)C(=O)[C@H](CC)C2O[C@]3(C=C[C@@H](O)[C@]4(CC[C@@](C)(C5CC[C@](O)(CC)[C@H](C)O5)O4)O3)[C@H](C)C[C@@H]2C)O1 (stereo partly specified) : 5.51 µM

Lookup result for Oc1cccc2ccc(N/N=C/c3cc(CN4CCCCC4)c(O)c4ncccc34)nc12 ; measured TGI: 2.03 µM

The recorded TGI for entry Nc1ncnc2ccc(Sc3ccc4ncnc(N)c4c3)cc12 equals > 100 µM

For CC(=O)Nc1cc([As](=O)(O)O)ccc1O the compound record lists TGI as > 100 µM

###

tested on: SF-539 CNS; assay: NCI tumour cell line growth inhibition, 48 h
property: TGI (µM)
The response must be a number in µM with no trailing unit.

Recorded result, COc1ccc(/C(=C2/O[C@@H]([C@H]3COC(C)(C)O3)[C@H]3OC(C)(C)O[C@@H]23)c2cc(OC)c(OC)c(OC)c2)cc1O , TGI: 8.75

The reported TGI of the molecule COc1ccc(/C=C2\C(=O)N(C3OC(COC(C)=O)C(OC(C)=O)C(OC(C)=O)C3OC(C)=O)c3ccccc3N=C2N)cc1 (stereo unspecified) was 21.4

According to the records, this molecule O=C1c2cccnc2C(=O)c2nc3cc(N4CCN(C5CC5)CC4)ccc3nc21 displays TGI of 1.66

###

system: HT29 colon; assay: NCI tumour cell line growth inhibition, 48 h
property: TGI

compound=CCOC(=O)N/N=C(/OCC)c1ccccc1 test_target="HT29 colon" property=TGI value_observed="> 100 µM"

We next turn to a different compound, shown below.
TGI reading for C=CC/C=C/Cc1csc(C(C)(C)C(O)C/C=C/C(=C)CCNC(=O)OC)n1 (stereo not given) : > 100 µM

###

tested on: SNB-75 CNS; experiment: NCI tumour cell line growth inhibition, 48 h
property: TGI (µM)
Give the quantity in µM, number only.

compound COc1ccc(/C=C2\NC(=S)N(CN3CCCCC3)C2=O)cc1 , TGI observed: 79

The compound listed as N=c1oc2c(Cl)cc(Cl)cc2cc1C(=O)Nc1cccc2ccccc12 shows TGI equal to 10.9

###

test system: MDA-MB-435; assay: NCI tumour cell line growth inhibition, 48 h
Short version: TGI at least 20 µM is 1.0, less is 0.0.

compound=O=[N+]([O-])c1ccc(-c2nnc(C34CC5CC(CC(C5)C3)C4)o2)cc1 group=1.0
compound="COC12OC3(C4OC41)C(C(=O)O[C@H]3CO[Si](C)(C)C(C)(C)C)C2C(=O)Oc1ccccc1 (some centres undefined)" group=1.0
compound=CN(C)CCNc1c2c(c(NCCN(C)C)c3[nH]ccc13)C(=O)c1ccccc1C2=O group=0.0
compound=CC(C)c1cc(-c2n[nH]c(=O)n2-c2ccc3c(ccn3C)c2)c(O)cc1O group=0.0
compound="CC#CC#C/C=C1/O[C@]2(CCC(OC(C)=O)CO2)[C@@H]2O[C@H]12 (some centres undefined)" group=1.0
compound=Cc1ccc(N=Nc2c(O)c(C(=O)O)cc3ccccc23)cc1C group=1.0

Req: Confirm if TGI reported for the compound N=c1c2c(C(N)=O)cn(C3OC(CO)C(O)C3O)c2ncn1O (centres undefined) is 20 µM or above.
Resp: 0.0
